Here the recorded normalized growth is given for each entry.
Experiment: chemical genetic growth profiling, strain panel (AID 1159580);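 note: tested at 20 µM; growth read once vehicle control cultures reached saturation at 30 °C; 1 = growth at the plate median or of vehicle wells; lower values mean less growth of the strain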
Details: S. cerevisiae deletion strains, growth OD, locus YDR392W, strain spt3, stronger effect = lower value
The campaign covered roughly 5,500 compounds. About 2,000 (36%) were called active. Not shown: some 18% with an inconclusive outcome. This is one part of the list.
Would you mind answering with just the numeric figure?

Consider the reported normalized growth for these compounds:
{"Compound": "CC1=C(/C=C/C(C)=C/C=C/C(C)=C/C=C/C=C(C)/C=C/C=C(C)/C=C/C2=C(C)C(=O)C(O)CC2(C)C)C(C)(C)CC(O)C1=O (stereo not drawn)", "Measured Quantity": "normalized growth", "Recorded Number": 1.04}
{"Compound": "CC(Oc1ccccc1)C(=O)N[C@@H]1C(=O)N2[C@@H]1SC(C)(C)[C@@H]2C(=O)O (stereo partly drawn)", "Measured Quantity": "normalized growth", "Recorded Number": 0.947}
{"Compound": "CCOC(=O)C(=O)C1(C(=O)OCC)Oc2cc(OC)cc(OC)c2C(=O)C1c1ccccc1 (stereo not drawn)", "Measured Quantity": "normalized growth", "Recorded Number": 0.767}
{"Compound": "CC1=C(/C=C/C(C)=C/C=C/C(C)=C/C=C/C=C(C)/C=C/C=C(C)/C=C/C(=O)[C@]2(C)C[C@@H](O)CC2(C)C)C(C)(C)C[C@H](O)C1", "Measured Quantity": "normalized growth", "Recorded Number": 0.984}
{"Compound": "CCN(CC)CCCC(C)Nc1c2ccc(Cl)cc2nc2ccc(OC)cc12 (stereo not drawn)", "Measured Quantity": "normalized growth", "Recorded Number": 0.717}
{"Compound": "CC(C)(O)[C@@H]1[C@H]2OC(=O)[C@@H]1[C@]1(O)C[C@H]3O[C@]34C(=O)O[C@H]2[C@]14C", "Measured Quantity": "normalized growth", "Recorded Number": 0.939}

Reported normalized growth ( O=C(O)c1c2ccccc2cc2ccccc12 ) = 0.906

The measured normalized growth associated with C[C@H]1CC2C([C@@H](O)C[C@@]3(C)C2CC[C@]3(O)C(=O)CO)[C@@]2(C)C=CC(=O)C=C12 (stereo partly drawn) reads 1.02

Lab book: normalized growth of CN1CCC(=C2c3ccccc3Sc3ccccc32)CC1 noted as 0.982

Entry COc1cc(NC(C)CCCN)c2ncccc2c1 (stereo not drawn) — recorded normalized growth = 0.875

normalized growth reported for this compound CCCCNc1cc(C(=O)O)cc(S(N)(=O)=O)c1Oc1ccccc1 : 0.906

// sample CN1CCC(=C2c3ccccc3CC(=O)c3sccc32)CC1 , its normalized growth was 1.04

Entry CC(=O)OCC[N+](C)(C)C — recorded normalized growth = 1.13
